# credit: patent US20060199821A1

Quick list: pIC50 per entry.
Biological target: p38-α kinase (Homo sapiens, UniProt Q16539)
Sequence (Q16539 whole entry): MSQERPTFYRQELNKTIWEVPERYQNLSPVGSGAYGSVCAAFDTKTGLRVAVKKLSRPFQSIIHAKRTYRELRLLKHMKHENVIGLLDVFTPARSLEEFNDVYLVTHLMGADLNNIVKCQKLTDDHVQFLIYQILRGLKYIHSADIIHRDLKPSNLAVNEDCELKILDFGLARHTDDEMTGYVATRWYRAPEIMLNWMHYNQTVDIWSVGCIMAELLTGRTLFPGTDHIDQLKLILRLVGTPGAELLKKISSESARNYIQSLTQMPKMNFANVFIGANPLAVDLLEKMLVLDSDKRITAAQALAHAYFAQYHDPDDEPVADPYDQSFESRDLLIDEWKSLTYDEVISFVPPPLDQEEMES
Assay: Human whole blood assay for p38 kinase inhibition, diluted (1:10) whole blood, LPS-induced TNF-α by ELISA
Settings: LPS-stimulated TNF-α production
pIC50: −log10 of the molar value.
REPORTED PROPERTY: pIC50

compound="CC(C)N(C(=O)c1ccc2ccccc2c1)c1ccnc(N[C@@H](C)c2ccccc2)n1 [Example 73]" system_name="p38-α kinase (Homo sapiens, UniProt Q16539)" reported_property=pIC50 observed_measurement="> 6.00"
compound="C[C@H](Nc1nccc(N(Cc2ccc(F)cc2)C(=O)c2ccc3ccccc3c2)n1)c1ccccc1 [Example 70]" system_name="p38-α kinase (Homo sapiens, UniProt Q16539)" reported_property=pIC50 observed_measurement="> 6.00"
compound="CCN(C(=O)c1ccc2c(c1)CCO2)c1ccnc(N[C@@H](C)c2ccccc2)n1 [Example 84]" system_name="p38-α kinase (Homo sapiens, UniProt Q16539)" reported_property=pIC50 observed_measurement="> 6.00"
